System: DNA polymerase III PolC-type (Bacillus subtilis (strain 168)) (UniProt P13267)
Sequence (P13267 whole entry): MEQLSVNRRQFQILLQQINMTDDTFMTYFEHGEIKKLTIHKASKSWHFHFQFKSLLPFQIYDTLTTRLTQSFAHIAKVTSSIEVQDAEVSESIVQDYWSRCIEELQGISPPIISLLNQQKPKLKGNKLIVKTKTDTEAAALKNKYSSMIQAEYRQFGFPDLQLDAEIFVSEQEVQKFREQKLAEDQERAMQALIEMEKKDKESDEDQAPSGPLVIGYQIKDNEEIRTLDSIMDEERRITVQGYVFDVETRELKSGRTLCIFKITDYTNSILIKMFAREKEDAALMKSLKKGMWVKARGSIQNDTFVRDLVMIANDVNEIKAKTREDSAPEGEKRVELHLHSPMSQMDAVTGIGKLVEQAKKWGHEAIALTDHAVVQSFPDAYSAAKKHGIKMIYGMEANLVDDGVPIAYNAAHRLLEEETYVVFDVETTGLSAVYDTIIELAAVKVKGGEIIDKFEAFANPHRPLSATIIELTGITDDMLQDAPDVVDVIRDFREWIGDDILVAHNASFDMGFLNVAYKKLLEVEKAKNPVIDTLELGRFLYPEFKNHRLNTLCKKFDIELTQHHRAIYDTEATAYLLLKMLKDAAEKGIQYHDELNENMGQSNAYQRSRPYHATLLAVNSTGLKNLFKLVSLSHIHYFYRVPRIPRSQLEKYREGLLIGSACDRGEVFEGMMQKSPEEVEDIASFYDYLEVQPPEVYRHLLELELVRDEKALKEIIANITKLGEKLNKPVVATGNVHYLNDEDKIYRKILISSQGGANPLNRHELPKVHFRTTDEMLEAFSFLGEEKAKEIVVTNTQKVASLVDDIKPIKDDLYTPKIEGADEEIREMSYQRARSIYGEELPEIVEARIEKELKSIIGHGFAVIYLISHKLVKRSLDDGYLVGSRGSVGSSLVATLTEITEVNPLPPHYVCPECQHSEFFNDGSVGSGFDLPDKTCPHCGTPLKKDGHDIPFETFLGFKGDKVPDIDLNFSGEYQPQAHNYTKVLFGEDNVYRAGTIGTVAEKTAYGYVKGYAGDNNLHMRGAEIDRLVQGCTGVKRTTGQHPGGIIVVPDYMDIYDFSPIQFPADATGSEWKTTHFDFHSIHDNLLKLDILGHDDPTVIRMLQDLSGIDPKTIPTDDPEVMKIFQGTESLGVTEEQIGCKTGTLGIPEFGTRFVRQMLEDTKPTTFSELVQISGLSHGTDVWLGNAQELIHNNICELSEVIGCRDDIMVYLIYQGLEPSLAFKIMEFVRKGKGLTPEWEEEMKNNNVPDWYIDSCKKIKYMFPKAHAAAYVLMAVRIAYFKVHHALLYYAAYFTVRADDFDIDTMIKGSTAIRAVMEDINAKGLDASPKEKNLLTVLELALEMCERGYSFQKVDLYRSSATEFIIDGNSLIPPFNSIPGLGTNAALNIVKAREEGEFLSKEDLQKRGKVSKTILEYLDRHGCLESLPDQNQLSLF
Procedure summary: Degree of resistance is the ratio between inhibition of Bacillus subtilis DNA Polymerase III azp-12 and WT.
Note to self: class = bucket of Degree of resistance, per lo (below 0.6), mid (0.6 to below 4), hi (4 or more)

Query: Looking at CCc1cccc(Nc2cc(O)nc(O)n2)c1 , which class would you pick?
Response: hi

Query: Looking at Oc1ccc(Nc2cc(O)nc(O)n2)cc1 , which class would you pick?
Response: mid

====

System: DNA polymerase III PolC-type (Bacillus subtilis (strain 168))
Procedure summary: Inhibition of Bacillus subtilis DNA polymerase III (wild type)
Sequence (P13267 whole entry): as above
Metric name: pKi
One number for each entry, as −log10 of the molar value.

CCCCNc1cc(O)nc(O)n1 ... 2.27

For each entry beneath this line, provide reported pKi.
1. C=CCNc1cc(O)nc(O)n1
2. CCCCCNc1cc(=O)[nH]c(=O)[nH]1

Response:
1.65
3.47

====

System: DNA polymerase III PolC-type (Bacillus subtilis (strain 168))
Procedure summary: Inhibition against Bacillus subtilis DNA polymerase III (wild type)
pKi: −log10 of the molar value.
Note to self: class = bucket of pKi, per low (below 3), middle (3 to below 5), high (5 or more)

For orientation, consider the following solved cases.
Oc1cc(Nc2ccc(Cl)c(Cl)c2)nc(O)n1 ... high
O=c1cc(Nc2ccc3ccccc3c2)[nH]c(=O)[nH]1 ... high
Cc1ccc(Nc2cc(=O)[nH]c(=O)[nH]2)cc1CO ... middle
Cc1ccc(Nc2cc(O)nc(O)n2)cc1C ... high
O=c1cc(NCCCCCO)[nH]c(=O)[nH]1 ... low
O=c1cc(Nc2cccc(CO)c2)[nH]c(=O)[nH]1 ... middle

Query: Looking at Cc1ccc(Nc2cc(O)nc(O)n2)c(C)c1 , which class would you pick?
Response: low

Query: Looking at Cc1cc(C)cc(Nc2cc(=O)[nH]c(=O)[nH]2)c1 , which class would you pick?
Response: middle

Query: Looking at Oc1cccc(Nc2cc(O)nc(O)n2)c1 , which class would you pick?
Response: low

Query: Looking at Cc1cccc(Nc2cc(=O)[nH]c(=O)[nH]2)c1 , which class would you pick?
Response: middle

====

System: DNA polymerase III PolC-type (Bacillus subtilis (strain 168))
Procedure summary: In vitro inhibition of Bacillus subtilis DNA Polymerase III/azp-12(mutant).
Sequence (P13267 whole entry, looked up): as the sequence (P13267 whole entry) above
I'd appreciate it if you could supply pKi values for the items below.
Answers are plain numbers, as −log10 of the molar value.

See these solved cases before continuing.
Cc1cccc(Nc2cc(=O)[nH]c(=O)[nH]2)c1 ... 3.75
Oc1cc(Nc2cccc(Br)c2)nc(O)n1 ... 4.66
COc1ccc(Nc2cc(O)nc(O)n2)cc1 ... 3.92
Oc1cc(Nc2cccc(Cl)c2)nc(O)n1 ... 4.38
Cc1ccc(Nc2cc(O)nc(O)n2)cc1C ... 5.46

For each entry beneath this line, provide reported pKi.
1. CCCc1ccc(Nc2cc(=O)[nH]c(=O)[nH]2)cc1
2. O=c1cc(Nc2cccc(CO)c2)[nH]c(=O)[nH]1

Response:
4.27
2.29

====

System: DNA polymerase III PolC-type (Bacillus subtilis (strain 168))
Procedure summary: Inhibition against Bacillus subtilis DNA Polymerase III/azp-12(mutant)
I'd appreciate it if you could supply Ki values for the items below.
Give bare numbers, in µM.

See these solved cases before continuing.
Cc1cc(Nc2cc(=O)[nH]c(=O)[nH]2)ccc1N ... 158
Nc1ccc(Nc2cc(=O)[nH]c(=O)[nH]2)cc1 ... 3900

From here, focus on the item given below.
Query: Note down Ki recorded for Cc1ccc(Nc2cc(=O)[nH]c(=O)[nH]2)cc1N
Response: 298
